B1: 5KPH (parent)
chain: EEKRQVKQVAKEKLLEQSPNSKVQVRRVQKQGNTIRVELELRTNGKKENYTVEVERQGNTWTVKRITRT

# Variants of: B1
# method-summary: folding stability dG (cDNA display proteolysis); higher = more stable
# condition-details: PBS, room temperature
Lab note: anything with folding stability dG at or over 10 kJ/mol counts as fulfilled; the rest go in not fulfilled.

residues: EEKRQVKQVAKEKLLEQSPNSKVQVRRVQKQGNTIRVELELRTNGKKENYTVEVERQGTTWTVKRITRT
group: fulfilled

residues: EEKRQVKQVAKEKLLEQSCNSKVQVRRVQKQGNTIRVELELRTNGKKENYTVEVERQGNTWTVKRITRT
group: fulfilled

residues: EEKRQVKQVAKEKLLEQSPKSKVQVRRVQKQGNTIRVELELRTNGKKENYTVEVERQGNTWTVKRITRT
group: fulfilled

residues: EEKRQVKQVAKEKLLEQSPNSKVQVRRVQKQGNTIRVELELRTNGKKENYTVQVERQGNTWTVKRITRT
group: fulfilled

residues: EEKRQVKQVAKEKLLEQSPNSKVQVRRVQKQGNTIRVELSLRTNGKKENYTVEVERQGNTWTVKRITRT
group: fulfilled

residues: EEKRQVKQVFKEKLLEQSPNSKVQVRRVQKQGNTIRVELELRTNGKKENYTVEVERQGNTWTVKRITRT
group: not fulfilled

residues: EEKRQVKQVAKEKLLEQSPNSKVQVRRVQKQGNTIRVELELRTNLKKENYTVEVERQGNTWTVKRITRT
group: fulfilled

residues: EEKRQVKQVAKEKLLEQSPNSKVQVRRVQKQGNTIRVELELRTNWKKENYTVEVERQGNTWTVKRITRT
group: fulfilled

residues: EEKRQMKQVAKEKLLEQSPNSKVQVRRVQKQGNTIRVELELRTNGKKENYTVEVERQGNTWTVKRITRT
group: fulfilled

residues: EEKRQNKQVAKEKLLEQSPNSKVQVRRVQKQGNTIRVELELRTNGKKENYTVEVERQGNTWTVKRITRT
group: not fulfilled

residues: EEKRQVKQVAKEKLLEQQPNSKVQVRRVQKQGNTIRVELELRTNGKKENYTVEVERQGNTWTVKRITRT
group: fulfilled
